// values below are reported Editing Efficiency 1 mM Theo
- System: galK 1 site
- assay overview: red/white colony screen of editing efficiency at the galK 1 site (CREATE recombineering)
- Format: cell-based, E. coli MG1655
- experimental conditions: induced for 3 hours with 1 mM theophylline
Quick note: unit goes after the number.

GU10: agRNA cassette GTACGGCCCATAAT, SEQ ID NO: 42 (expressed or natural sequence) = 0%
AU8: agRNA cassette ACGGGGCCTAATAT, SEQ ID NO: 22 (expressed or natural sequence) = 48%

[ask] API: value(readout=Editing Efficiency 1 mM Theo, system=galK 1 site) for record GU3: agRNA cassette GCAGGGCCTCATTT, SEQ ID NO: 36 (expressed or natural sequence)
[reply] 0%

[ask] Thanks! And AU11: agRNA cassette AATAGGCCACTTAT, SEQ ID NO: 25 (expressed or natural sequence) ?
[reply] 25%

[ask] Thanks! And AU5: agRNA cassette ACTCGGCCTGAACT, SEQ ID NO: 19 (chemistry not given here) ?
[reply] 43%

[ask] Thanks! And GU15: agRNA cassette GGACGGCCTACAAT, SEQ ID NO: 47 (expressed or natural sequence) ?
[reply] 11%

[ask] Thanks! And AU2: agRNA cassette ACCAGGCCAAGTAT, SEQ ID NO: 16 (expressed or natural sequence) ?
[reply] 4%

----------
- Tested on: galK 1 site
- assay overview: red/white colony screen of editing efficiency at the galK 1 site (CREATE recombineering)
- Format: cell-based, E. coli MG1655
- experimental conditions: induced for 3 hours with 1 mM theophylline
endpoint name: Editing Efficiency 1 mM Theo (%)
Report only the number, with the unit % understood.

GC12: agRNA cassette GATAGGCCAGTTAC, SEQ ID NO: 63 (expressed or natural sequence) = 36
GC15: agRNA cassette GCATGGCCTACTCC, SEQ ID NO: 65 (expressed or natural sequence) = 21
C2A2: agRNA cassette TAGTGGCTACCATG, SEQ ID NO: 14 (expressed or natural sequence) = 84
AU1: agRNA cassette AGGGGGCCTATAAT, SEQ ID NO: 15 (expressed or natural sequence) = 2
GU14: agRNA cassette GACTGGCCTATAAT, SEQ ID NO: 46 (expressed or natural sequence) = 2

[ask] API: value(readout=Editing Efficiency 1 mM Theo, system=galK 1 site) for record GC7: agRNA cassette GGGGGGCCGAATAC, SEQ ID NO: 58 (expressed or natural sequence)
[reply] 71

----------
// values below are reported Editing Efficiency no Theo
- Tested on: galK 1 site
- assay overview: red/white colony screen of editing efficiency at the galK 1 site (CREATE recombineering)
- Type: cell-based, E. coli MG1655
- experimental conditions: no theophylline, 3 hours recovery
Report only the number, with the unit % understood.

GU11: agRNA cassette GTATGGCCTCGGAT, SEQ ID NO: 43 (expressed or natural sequence) = 0

[ask] Find the recorded Editing Efficiency no Theo belonging to GU15: agRNA cassette GGACGGCCTACAAT, SEQ ID NO: 47 (expressed or natural sequence) and report it.
[reply] 0

[ask] Thanks! And GC20: agRNA cassette GCAAGGCCAACACC, SEQ ID NO: 69 (expressed or natural sequence) ?
[reply] 0

[ask] Thanks! And C2A2: agRNA cassette TAGTGGCTACCATG, SEQ ID NO: 14 (expressed or natural sequence) ?
[reply] 5

[ask] Thanks! And A26: agRNA cassette GGGGGGCCACGCGC, SEQ ID NO: 13 (expressed or natural sequence) ?
[reply] 5

[ask] Thanks! And GC3: agRNA cassette GTCCGGCCCCACAC, SEQ ID NO: 54 (expressed or natural sequence) ?
[reply] 0

[ask] Thanks! And GU10: agRNA cassette GTACGGCCCATAAT, SEQ ID NO: 42 (expressed or natural sequence) ?
[reply] 0

[ask] Thanks! And AU1: agRNA cassette AGGGGGCCTATAAT, SEQ ID NO: 15 (expressed or natural sequence) ?
[reply] 0

[ask] Thanks! And GC16: agRNA cassette GATAGGCCAACACC, SEQ ID NO: 66 (expressed or natural sequence) ?
[reply] 1

----------
- System: galK 1 site
- assay overview: red/white colony screen of editing efficiency at the galK 1 site (CREATE recombineering)
- Type: cell-based, E. coli MG1655
- experimental conditions: induced for 3 hours with 1 mM theophylline
endpoint name: Editing Efficiency 1 mM Theo (%)
Report only the number, with the unit % understood.

Worked cases, Editing Efficiency 1 mM Theo given:
GC16: agRNA cassette GATAGGCCAACACC, SEQ ID NO: 66 (expressed or natural sequence) = 65
AU14: agRNA cassette AGTGGGCCAGCCTT, SEQ ID NO: 27 (expressed or natural sequence) = 17
GU12: agRNA cassette GCCGGGCCTTTTTT, SEQ ID NO: 44 (expressed or natural sequence) = 7
AU6: agRNA cassette AAGGGGCCTATAAT, SEQ ID NO: 20 (expressed or natural sequence) = 77
GC8: agRNA cassette GGACGGCCCTGTGC, SEQ ID NO: 59 (expressed or natural sequence) = 0
AU7: agRNA cassette AGTAGGCCTTTCAT, SEQ ID NO: 21 (expressed or natural sequence) = 58

Now take the following substance into account.
[ask] API: value(readout=Editing Efficiency 1 mM Theo, system=galK 1 site) for record AU12: agRNA cassette AGAGGGCCGGGCGT, SEQ ID NO: 26 (expressed or natural sequence)
[reply] 26

----------
- Tested on: galK 1 site
- assay overview: red/white colony screen of editing efficiency at the galK 1 site (CREATE recombineering)
- Format: cell-based, E. coli MG1655
- experimental conditions: no theophylline, 3 hours recovery
endpoint name: Editing Efficiency no Theo (%)
Report only the number, with the unit % understood.

Worked cases, Editing Efficiency no Theo given:
AU7: agRNA cassette AGTAGGCCTTTCAT, SEQ ID NO: 21 (expressed or natural sequence) = 0
GU2: agRNA cassette GCGAGGCCTACTAT, SEQ ID NO: 35 (expressed or natural sequence) = 0
GC11: agRNA cassette GCGTGGCCCTTCCC, SEQ ID NO: 62 (chemistry not given here) = 0
AU3: agRNA cassette ACAAGGCCCATAAT, SEQ ID NO: 17 (expressed or natural sequence) = 1
A34: agRNA cassette TAGTTTAAACCGTT, SEQ ID NO: 7 (expressed or natural sequence) = 12
GU14: agRNA cassette GACTGGCCTATAAT, SEQ ID NO: 46 (expressed or natural sequence) = 0
GC5: agRNA cassette GTTGGGCCGCGGAC, SEQ ID NO: 56 (expressed or natural sequence) = 0
AU10: agRNA cassette ATAGGGCCATCCAT, SEQ ID NO: 24 (expressed or natural sequence) = 0

[ask] Find the recorded Editing Efficiency no Theo belonging to GU3: agRNA cassette GCAGGGCCTCATTT, SEQ ID NO: 36 (expressed or natural sequence) and report it.
[reply] 0

[ask] Thanks! And AU4: agRNA cassette AACAGGCCTTAATT, SEQ ID NO: 18 (expressed or natural sequence) ?
[reply] 0

[ask] Thanks! And GC13: agRNA cassette GGAAGGCCTTATAC, SEQ ID NO: 64 (expressed or natural sequence) ?
[reply] 0

[ask] Thanks! And A1: agRNA cassette GGGGGGCCTATTTT, SEQ ID NO: 8 (expressed or natural sequence) ?
[reply] 0

[ask] Thanks! And GC10: agRNA cassette GAGCGGCCACAACC, SEQ ID NO: 61 (expressed or natural sequence) ?
[reply] 0

[ask] Thanks! And AU14: agRNA cassette AGTGGGCCAGCCTT, SEQ ID NO: 27 (expressed or natural sequence) ?
[reply] 0

[ask] Thanks! And A8: agRNA cassette CGGGGGACAATAGG, SEQ ID NO: 12 (expressed or natural sequence) ?
[reply] 2

----------
// values below are reported Editing Efficiency 1 mM Theo
- Tested on: galK 1 site
- assay overview: red/white colony screen of editing efficiency at the galK 1 site (CREATE recombineering)
- Type: cell-based, E. coli MG1655
- experimental conditions: induced for 3 hours with 1 mM theophylline
Report only the number, with the unit % understood.

Worked cases, Editing Efficiency 1 mM Theo given:
AU4: agRNA cassette AACAGGCCTTAATT, SEQ ID NO: 18 (expressed or natural sequence) = 0
GU13: agRNA cassette GGCCGGCCAAGCAT, SEQ ID NO: 45 (expressed or natural sequence) = 6

Now take the following substance into account.
[ask] Find the recorded Editing Efficiency 1 mM Theo belonging to GC20: agRNA cassette GCAAGGCCAACACC, SEQ ID NO: 69 (expressed or natural sequence) and report it.
[reply] 64
